Measured values drawn from PubChem BioAssay (EPA / NIEHS) for this set.

# Read-out: Peroxisomal acyl-coenzyme A oxidase 1 (ACOX1) gene, ACOX1 (gene 51)
# experiment: LTEA_HepaRG_ACOX1: Life Technologies and Expression Analysis (LTEA) Assay for Peroxisomal acyl-coenzyme A oxidase 1 (ACOX1) gene using HepaRG (AID 2283467)
# applied.conditions: mRNA level, 48 h; actives raise or lower the signal
Activity calls are given as the source filed them. How the source made its calls: active means hit-call score of the fitted dose curve at least 0.9, where 1 is the maximum; inactive means score below 0.9.
Labels: YES for active, NO for inactive

[
  {
    "molecule": "Cc1ccc(N(C)C)cc1",
    "assigned.category": "NO"
  },
  {
    "molecule": "Cc1cccc(Nc2cc(Cl)nc(SCC(=O)O)n2)c1C",
    "assigned.category": "YES"
  },
  {
    "molecule": "O=C(O)Cc1ccccc1Nc1c(Cl)cccc1Cl",
    "assigned.category": "NO"
  },
  {
    "molecule": "CCCCCCCCCCCCCCCC",
    "assigned.category": "NO"
  },
  {
    "molecule": "O=c1[nH]cc(F)c(=O)[nH]1",
    "assigned.category": "NO"
  },
  {
    "molecule": "COc1cc(-c2nc(NC(=O)c3cc4cc(C)cc(C)c4n3CC(=O)O)sc2CCC2CCCCC2)c(OC)cc1Cl",
    "assigned.category": "YES"
  },
  {
    "molecule": "CCOC(=O)CCC(=O)OCC",
    "assigned.category": "NO"
  },
  {
    "molecule": "COc1cc(S(=O)(=O)O)c(C)cc1N=Nc1c(O)ccc2cc(S(=O)(=O)O)ccc12",
    "assigned.category": "NO"
  },
  {
    "molecule": "CC1(C)NC(=O)NC1=O",
    "assigned.category": "NO"
  },
  {
    "molecule": "COCCOC[C@H](CC1(C(=O)NC2CCC(C(=O)O)CC2)CCCC1)C(=O)Oc1ccc2c(c1)CCC2 (stereo partly specified)",
    "assigned.category": "NO"
  },
  {
    "molecule": "Nc1nc(N)c2nc(CNc3ccc(C(=O)N[C@@H](CCC(=O)O)C(=O)O)cc3)cnc2n1",
    "assigned.category": "NO"
  },
  {
    "molecule": "Nc1ccc2c(c1)C(=O)c1ccccc1C2=O",
    "assigned.category": "NO"
  },
  {
    "molecule": "NC(=O)Cn1c(=O)cc(CCN2CCN(c3nccc4sccc34)CC2)c2ccc(F)cc21",
    "assigned.category": "NO"
  },
  {
    "molecule": "O=[N+]([O-])C(CO)(CO)CO",
    "assigned.category": "NO"
  },
  {
    "molecule": "CC1(C)CC(N=C=O)CC(C)(CN=C=O)C1 (stereo unspecified)",
    "assigned.category": "NO"
  },
  {
    "molecule": "CNC(=O)[C@H]1O[C@@H](n2cnc3c(NCc4cc(Cl)ccc4OCc4cc(C)no4)ncnc32)[C@H](O)[C@@H]1N",
    "assigned.category": "NO"
  }
]

----------
# Read-out: Cytochrome P450 7A1 (Homo sapiens) (UniProt P22680)
# experiment: LTEA_HepaRG_CYP7A1: Life Technologies and Expression Analysis (LTEA) Assay for Cytochrome P450 7A1 (CYP7A1) using HepaRG (AID 2283496)
# applied.conditions: mRNA level, 48 h; actives raise or lower the signal
Active and inactive are the calls of the source. The calls were made as follows: active = hit-call score of the fitted dose curve at least 0.9, where 1 is the maximum; inactive = score below 0.9.
Labels: active, inactive

[
  {
    "compound": "CCCCCCCCCCCCCO",
    "assigned.category": "inactive"
  },
  {
    "compound": "CCCCC(CC)COC(=O)CC(C(=O)OCC(CC)CCCC)S(=O)(=O)O (centres undefined)",
    "assigned.category": "active"
  },
  {
    "compound": "CC(CO)OC(C)CO (centres undefined) (tested in a mixture with another compound)",
    "assigned.category": "inactive"
  },
  {
    "compound": "Cc1ccc(N(C)C)cc1",
    "assigned.category": "inactive"
  }
]
